protocol notes: folding stability dG unfold from chymotrypsin proteolysis; higher = more stable
Could you please report measured folding stability dG unfold for the items listed next?
Number first, unit second: that is the form wanted.

Prompt: What folding stability dG unfold value was documented for this sequence, SAGGSKPEKIKVVSVEVFPDGLIKVKVKTESGYEATALIVKLPGDKYLIFLTIPANGKPFVFELPASAGGSA [r2_361_TrMRF] ?
Response: 2.61 kcal/mol

Prompt: Same thing, different sequence: SAGGSAGGSAGGKKIRFYFPNGNPVELTEILDVDPEDKWARIDVEHNGKKHKHPMPADDLSAGGSAGGSAGG [r7_236_TrROS]
Response: -1.19 kcal/mol

Prompt: Same thing, different sequence: SAMTIVLTLDEIAELLGLEKGESVEELRERIRELIRRLEEEGYRVTSITIEEVDGELVITVEIEPPPPESAG [r14_158_TrROS_Hall]
Response: 5.23 kcal/mol

Prompt: Same thing, different sequence: SAGGSAGGSAGGAKPVTFTFPDGTKAVSVEETPTSVVLYDPGPGALYVLDKETKTITPASAGGSAGGSAGGS [r10_289_TrMRF]
Response: -0.512 kcal/mol

Prompt: Same thing, different sequence: SAGGSAGGSAGGKKININVPAEEMTEEEIKKLIKNLPPDMPIEIEIQPVPPPPPPPPGDKSAGGSAGGSAGG [r7_979_TrROS]
Response: -0.851 kcal/mol

Prompt: Same thing, different sequence: SAGGSAPEIPTDALVRVRDPNSDKWYEATVLEARKLPGGELVYLIRLTKDGNEELVPTDLATVELKSAGGSA [r15_62_JUSTAS]
Response: 1.53 kcal/mol

Prompt: Same thing, different sequence: SAGGSAGGSPGNYIIQIEIKFPGRKHTWHVDSPEEALEQLKNDLEKQHPNAPITDVEIEVFPLSAGGSAGGS [r12_429_TrROS]
Response: 0.155 kcal/mol

---

protocol notes: folding stability dG unfold from chymotrypsin proteolysis; higher = more stable
measurement label: folding stability dG unfold (kcal/mol)
Respond with the bare value in kcal/mol.

Prompt: What folding stability dG unfold value was documented for this sequence, SAGKKKFITIVIPIEKKEKLKKAVEELKKKFNAKELAVIPNPEKNEIIEVVVKETKDAIIKIVIIAKESAGG [r19_262_TrMRF] ?
Response: 1.26

Prompt: Same thing, different sequence: SAGGGSSSTTTSTTTTTSTSIEPLPGDREVVVTTTTTTTTTTTTTTPPDGSSTSTTTTTTTTTTTVTLASAG [r5_428_JUSTAS]
Response: 1.45

Prompt: Same thing, different sequence: SAGGSANVQVEQTGDGKIKIEFPWYGAEITLNPKKGDIEVEVLPNYKNGQPPPEDEVKNLAKEILDSAGGSA [r15_735_TrROS]
Response: 0.971

Prompt: Same thing, different sequence: SAGGPNIELEFETYRDPDGMLVIKFHIRIKFGNKPVYIFVEGVIPPDGEAQIEDAYIFDADNGEWIPISAGG [r13_932_TrROS]
Response: 4.6

Prompt: Same thing, different sequence: SAGGSAMPLLIVDKNNNVTLISASSPEELEELLKKYNIKKIEPFPFPDGKALVFIAEYPDGIIYSGSAGGSA [r15_632_TrMRF]
Response: 1.65

Prompt: Same thing, different sequence: SAGGSAGGSAGGPKVEVLEVFEFGDLRFVKVYDPETGKVTLLAVTRSDGSKVTFFNPEESAGGSAGGSAGGS [r10_655_TrMRF]
Response: 2.58

Prompt: Same thing, different sequence: SAGGSAGGSAGPGLSITTTITTTTPAKLPNGTAPLRTTTTTIITELKPADPNNPVILANTSAGGSAGGSAGG [r11_236_JUSTAS]
Response: 0.278

Prompt: Same thing, different sequence: SAGGSAGGSAGGSVPSVKLPKVGLKTDPVSSVLDFGEEKGDPVSVSIHLTLFLPDGTILLSAGGSAGGSAGG [r11_890_JUSTAS]
Response: 0.881

Prompt: Same thing, different sequence: SAPPTVKINWERVRRNGKRYYMIRVEITHPNNGKEREHTFMYDDPEDFLDNLLKLPNIDRVEIEDIYPMSAG [r14_464_TrROS]
Response: 1.8

Prompt: Same thing, different sequence: SAGGSAMLVKVTITLKKGGKEYTLEQFVEVNPPDLKIEIPPEIKEKGWEIVDIEVEEITPEEAERKSAGGSA [r15_853_JUSTAS]
Response: 3.19

Prompt: Same thing, different sequence: SAGGMPKTITVERTLDVDPAVLASTTPEELVARVVEELRAEGVPISSVDPQTITRGATTVTVRVTLLESAGG [r13_432_JUSTAS]
Response: 2.32

Prompt: Same thing, different sequence: SAGAAAIAEKLGFSPELVEILSVEDVEYTIVVRRTGEPVKMKRPTVKVLVTDPSVPKETTAEVPVAELASAG [r5_517_JUSTAS]
Response: -0.807

Prompt: Same thing, different sequence: SAGGMYLYKINIKNENEEFFLPILAPEEDEEKVEELAKEISIKLGVKPENIKIEKIEKILGPNGIPVSAGGS [r16_650_TrMRF]
Response: 2.08

Prompt: Same thing, different sequence: SAGGSAGGSLRPDEEVVAILPNGEKVPFKVESVEVSPDGSVKANLTLPGGKSLGPANLVFKPESAGGSAGGS [r12_735_TrMRF]
Response: -0.00357

Prompt: Same thing, different sequence: SAGGSAGGSAWRTIEITWPPSNPEEFIDEISKDFGFTVEGEREPNGYHTIDFQLPPGMKIVSAGGSAGGSAG [r3_457_TrROS]
Response: -0.137

Prompt: Same thing, different sequence: STITDVEIYKMPPGEEYPFPNGRKIPPGDYMIYNEDNGHYMSADQIRRILQEIEQELEKLPPPKKPENDKSA [r9_517_TrROS]
Response: 0.251

Prompt: Same thing, different sequence: SAGGSAGGSMELDEDGRLIVRIKVRDKETKEWKEIEIELPGLTEEEIRKLAEELGAEEIEILPSAGGSAGGS [r12_792_TrROS_Hall]
Response: 2.39

Prompt: Same thing, different sequence: SAGGSAGGSAGMIVIKNPETKEYYVIKFDGKEYVIELSEDELKELLEKLKGKDVEIKKLPSAGGSAGGSAGG [r11_57_TrROS_Hall]
Response: 1.93

Prompt: Same thing, different sequence: SAGGSAGGSMTITKRSDGTIEVEIEISPEHPDVSPEEVKERVKKELEKKGIKTPVKITVKPVPESAGGSAGG [r6_480_JUSTAS]
Response: 2.27

Prompt: Same thing, different sequence: SAGGSAGGSAGGSMVKVEKNGEGVVTTTTKYFFYPSTGKWSSETITTTKKVPKDEPFPLSAGGSAGGSAGGS [r4_215_JUSTAS]
Response: -0.0539

Prompt: Same thing, different sequence: SHTTTEPATGVTVEVVPSPDGTHVVTVKKPGGEVVKTVTVPSGPRPPGSTTPLTVALTDLPPDVETSVDLSS [r1_263_JUSTAS]
Response: 0.141

Prompt: Same thing, different sequence: SAGGSAGGSAGGSPVSPKIVTTDPGPNVITTVYYSPEDGKVLSTSTTVVPPLPPGEILTSAGGSAGGSAGGS [r10_1051_JUSTAS]
Response: 0.817

Prompt: Same thing, different sequence: SAGGSAGGSAKVKIVIKNENGEEFEIEMSEEELKKKLKPGDKVKIKIEKVNGKLKITIEKESAGGSAGGSAG [r3_86_TrROS_Hall]
Response: 2.11

Prompt: Same thing, different sequence: SAGSVPQLIEDKLQEGSPNSSVEVKPVDTLGGTTVLEVKIERIDTSSGNGKLTSEDKIIEVPAGEELGSAGG [r19_8_JUSTAS]
Response: 0.467

Prompt: Same thing, different sequence: SAGGSAGGSAGSTVTLTVDPDTNVATLTAIIGGKPVTATLTFIPNTGKARLPDGTWIDISSAGGSAGGSAGG [r11_395_TrMRF]
Response: 1.03

Prompt: Same thing, different sequence: SPAAELARRLFEELGLEAELVSVDPERRRVTFRVRHPDRAPLLLEVVYDPERPVFAIALNPETGRAVVPVSA [r9_1119_TrMRF]
Response: 3.11

Prompt: Same thing, different sequence: SAGGSAGGSMLVLKVEVKIEVEEREVIGPDGKIKKEKKIKIEIKIELFELPPLTEEELKKLKESAGGSAGGS [r12_1060_TrROS_Hall]
Response: 4.14
